assay: Solubility of pesticides in solvents (stepwise 2% increments of pesticide powder); settings: solvent: ethyl 3-ethoxypropionate, highest concentration still dissolved, no more than 2% lower than actual solubility
Task for the reader: assign each of the following compounds its reported Solubility in Comparative Solvent C.
Express your answer as a number followed by its unit.

Go through the items and report each one's Solubility in Comparative Solvent C.
1. CCCCC(C#N)(Cn1cncn1)c1ccc(Cl)cc1 (stereo not shown) [Myclobutanil]
2. COC(=O)N(OC)c1ccccc1COc1ccn(-c2ccc(Cl)cc2)n1 [Pyraclostrobin]
3. CC(C)(C)C(=O)C(Oc1ccc(Cl)cc1)n1cncn1 (stereo not shown) [Triazolone]
4. CC(C)(C)C(O)(CCc1ccc(Cl)cc1)Cn1cncn1 (stereo not shown) [Tebuconazole]

Result:
1: 39.0 weight %; 2: 47.0 weight %; 3: 32.0 weight %; 4: 16.0 weight %

---

experiment: Solubility of pesticides in solvents (stepwise 2% increments of pesticide powder); conditions: solvent: dimethyl sulfoxide (DMSO), highest concentration still dissolved, no more than 2% lower than actual solubility
ASSAY METRIC: Solubility in Comparative Solvent A
Express your answer as a number followed by its unit.

Examples from the recorded data:
CC(C)(C)C(O)(CCc1ccc(Cl)cc1)Cn1cncn1 (stereo not shown)
32.3 weight %
CCCCC(C#N)(Cn1cncn1)c1ccc(Cl)cc1 (stereo not shown)
56.7 weight %
CC(C)(C)C(=O)C(Oc1ccc(Cl)cc1)n1cncn1 (stereo not shown)
43.3 weight %

Kindly consider the entry below.
Record `COC(=O)N(OC)c1ccccc1COc1ccn(-c2ccc(Cl)cc2)n1` , field Solubility in Comparative Solvent A: 40.0 weight %

---

experiment: Solubility of pesticides in solvents (stepwise 2% increments of pesticide powder); conditions: solvent: diethylene glycol monoethyl ether, highest concentration still dissolved, no more than 2% lower than actual solubility
Task for the reader: assign each of the following compounds its reported Solubility in Comparative Solvent B.
One number for each entry, in weight %.

CCCCC(C#N)(Cn1cncn1)c1ccc(Cl)cc1 (stereo not shown) [Myclobutanil]
46.0
CC(C)(C)C(=O)C(Oc1ccc(Cl)cc1)n1cncn1 (stereo not shown) [Triazolone]
35.7
CC(C)(C)C(O)(CCc1ccc(Cl)cc1)Cn1cncn1 (stereo not shown) [Tebuconazole]
26.5

Kindly consider the entry below.
Record COC(=O)N(OC)c1ccccc1COc1ccn(-c2ccc(Cl)cc2)n1 [Pyraclostrobin] , field Solubility in Comparative Solvent B: 33.0
